Target: NAMPT (Homo sapiens)
Construct: His tag; host or cells: E. coli
Sequence (P43490 whole entry): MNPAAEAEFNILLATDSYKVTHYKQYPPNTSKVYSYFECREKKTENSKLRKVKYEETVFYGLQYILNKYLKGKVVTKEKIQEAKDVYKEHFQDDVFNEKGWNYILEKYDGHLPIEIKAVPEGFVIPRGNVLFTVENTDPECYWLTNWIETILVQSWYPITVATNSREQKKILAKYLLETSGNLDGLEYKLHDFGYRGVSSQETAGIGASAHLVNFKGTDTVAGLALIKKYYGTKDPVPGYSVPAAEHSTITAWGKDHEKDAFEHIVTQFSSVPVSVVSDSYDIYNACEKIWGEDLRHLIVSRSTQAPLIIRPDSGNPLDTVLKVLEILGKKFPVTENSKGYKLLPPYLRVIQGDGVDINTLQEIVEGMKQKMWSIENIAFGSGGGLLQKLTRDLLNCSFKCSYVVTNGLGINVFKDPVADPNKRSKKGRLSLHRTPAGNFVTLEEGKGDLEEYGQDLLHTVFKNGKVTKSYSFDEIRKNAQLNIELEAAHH
Assay: Biochemical inhibition assay: NAMPT enzymatic reaction, NMN quantified by mass spectrometry
Conditions: NAMPT enzymatic reaction; read-out: Biochem IC50
Below is a list of entries, each paired with its recorded log10 IC50 value.
Log10 applied to IC50; unit prior to transform: µM.

| Smiles repr | Tgt | log10 IC50 |
| --- | --- | --- |
| CC(=O)c1ccc(S(=O)(=O)c2ccc(CNC(=O)c3cnc4[nH]ncc4c3)cc2)cc1 | NAMPT (Homo sapiens) | -1.54 |

Challenge: Quick one: log10 IC50 for O=C(NCc1ccc(S(=O)(=O)c2cc(F)cc(Cl)c2)cc1)c1cnc2[nH]ncc2c1 ?
Response given: -1.88

Challenge: Given the entry COc1ccc(C(C)C)cc1S(=O)(=O)c1ccc(CNC(=O)c2cc3cnccc3[nH]2)cc1 , report its measured log10 IC50.
Response given: -1.21

Challenge: Look up log10 IC50: O=C(NCc1ccc(S(=O)(=O)c2ccc(F)c(F)c2)cc1)c1cnc2nccn2c1
Response given: -2.39

Challenge: What does the data say about its log10 IC50? Entry: COc1cc(F)ccc1NS(=O)(=O)c1ccc(CNC(=O)c2cc3cnccc3[nH]2)cc1
Response given: 0.50

Challenge: Give the measured log10 IC50 of COc1cc(S(=O)(=O)c2ccc(CNC(=O)c3cnc4[nH]ncc4c3)cc2)ccc1Cl .
Response given: -1.90

Challenge: I have this compound here, CCCOc1ccc(Cl)cc1S(=O)(=O)c1ccc(CNC(=O)c2ccc3nccn3c2)cc1 , and I need its recorded log10 IC50.
Response given: -2.10

Challenge: Name the reported log10 IC50 value associated with the compound COc1cc(S(=O)(=O)c2ccc(CNC(=O)c3cc4ccncc4o3)cc2)ccc1F
Response given: -2.11
